Reference source for all entries: the OligoGym collection

Biological target: FAM75A3
Experiment: pooled miR-30 sensor sort-seq; sequence = guide strand
Settings: shRNA
readout.kind: sensor-assay potency score (higher = more potent)
I only need the number, thanks.

sequence.code: TGATTCGTCCTGAAGCTGCATC
numeric.readout: -0.869

sequence.code: TGGTGATTCGTCCTGAAGCTGC
numeric.readout: -1.37

Challenge: Please tell me: sensor-assay potency score (higher = more potent) of "TTCACTAACAACCTCCTCCATA" , system FAM75A3?
Response given: -0.534

Challenge: Report sensor-assay potency score (higher = more potent) for "TTCGTCCTGAAGCTGCATCAGA" tested on FAM75A3.
Response given: -0.939
